experimental.details: NCI Yeast Anticancer Drug Screen. Data for the cln2 rad14 strain (AID 165);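 further: 0% = growth equal to vehicle treated cultures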
measurement.parameters: S. cerevisiae cln2 rad14 strain, at 50.0 µM, stronger effect = higher value
The panel holds about 79,000 compounds, 15% with a hit somewhere; the sample as a whole holds those more often.
attribute.measured: growth inhibition (%)
The reply should contain only the number, in %.

molecule	growth inhibition, %
O=C(/C=C/c1ccccc1)NN1CCOCC1	-34.5
O=[N+]([O-])/C(C(Cl)=C(Cl)Cl)=C1\NCCS1	9.7
Nc1cc(NC(=O)CO)cc(C(=O)O)c1	-0.4
Cc1ccc(NC(=O)c2cc3ccccc3c(N=Nc3ccccc3O)c2O)c(C)c1	9.85
Brc1ccccc1-c1nc2ccccc2[nH]1	-63

Task: State, in one line, measured growth inhibition of CN(C)CCC(CCN(C)C)=NO
Output: 15.5

Task: State, in one line, measured growth inhibition of Cc1c2ccccc2nc(CSc2n[nH]c(=S)s2)[n+]1[O-]
Output: -44.5

----------
experimental.details: NCI Yeast Anticancer Drug Screen. Data for the bub3 strain (AID 167)
measurement.parameters: S. cerevisiae bub3 mutant strain, at 50.0 µM
This is part of a sample that, as a whole, favours compounds with a hit. Of some 79,000 tested, about 15% had one in any assay. Active and inactive are the calls of the source. Rule as the data show it: active = growth inhibition above about 70%; inactive = the rest.
Could you please pick one outcome from this set? active, inactive

Worked set:
compound	label.value
CCOC(=O)N1CCN(C(=O)OCC)C(C)C1 (centres undefined)	inactive
O=C(Nc1cccc(Cl)c1)ON1C(=O)C2C(C1=O)C1(Cl)C(Cl)C(Cl)C2(Cl)C1(Cl)Cl (centres undefined)	inactive
CCn1c(C)nc2c(N)cccc2c1=O	inactive
CCC(=O)Oc1ccc(C(C)(C)C)cc1	inactive
Cc1ccc(N=Nc2c(C)nn(-c3ccccc3)c2C)c(Br)c1	inactive
c1ccc2c(c1)SCCCSCCCS2	inactive
Cc1cc(Cl)c2c(c1)C(=O)C(C)C2.[Cu+2] (centres undefined)	inactive
O=C(Cc1n[nH]c(=S)nc1CC(=O)c1ccccc1)c1ccccc1	inactive
C=CCSc1ncnc2nc[nH]c12	inactive
CC1(C)Oc2ccc3c(=O)c(-c4ccccc4)c(-c4ccccc4)oc3c2C1C(=O)O (centres undefined)	inactive

Task: Identify the outcome logged in this assay for the compound shown: OC(CC1CCCC(CC(O)c2ccccc2)N1CCc1ccccc1)c1ccccc1 (centres undefined)
Output: inactive

Task: Identify the outcome logged in this assay for the compound shown: OCCCCCCO
Output: inactive

Task: Identify the outcome logged in this assay for the compound shown: CC(C)N(C(=S)/N=C1/SC(C)S(=O)(=O)N1C)C(C)C (centres undefined)
Output: inactive

Task: Identify the outcome logged in this assay for the compound shown: O=C(c1ccccc1)C1(Cl)CCCCC1
Output: inactive

----------
experimental.details: NCI Yeast Anticancer Drug Screen. Data for the sgs1 mgt1 strain (AID 161);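 further: 0% = growth of cultures given vehicle only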
measurement.parameters: S. cerevisiae sgs1 mgt1 strain, at 50.0 µM, stronger effect = higher value
About 79,000 compounds went through this panel and 15% of them were active in at least one assay; those are over-represented in the sample as a whole.
Each entry below lists one item and its recorded growth inhibition value.
The reply should contain only the number, in %.

Here are 2 compounds together with their reported answers.
compound	unit.annotation	growth inhibition
CC(C#N)N(C)c1c([N+](=O)[O-])c(=O)n(C)c(=O)n1C (configuration not stated)	%	-5.4
Cc1cc(=NO)cc(C)n1O	%	54.9

Task: State, in one line, measured growth inhibition of CC1=NN(c2ccccc2)C(=O)C1=C1SCCCS1
Output: 10.6

Task: State, in one line, measured growth inhibition of CO/N=C1\CC(NC(=O)C(F)(F)F)c2ccsc21 (configuration not stated)
Output: 8

Task: State, in one line, measured growth inhibition of CCOC(=O)COc1c(C)cccc1C
Output: -2.5

Task: State, in one line, measured growth inhibition of Cc1[nH]n(C(N)=S)c(=O)c1N=Nc1c(Cl)cccc1Cl
Output: 63.2

Task: State, in one line, measured growth inhibition of Cc1cc(-c2ccc(N=Nc3c(C)nn(-c4ccc(S(=O)(=O)O)cc4)c3O)c(C)c2)ccc1N=Nc1ccc(O)c(C(=O)O)c1
Output: 26.2

Task: State, in one line, measured growth inhibition of COc1ccc(N=c2nc3n4c(c(Br)cc(Br)c4n2)NC(C(Br)(Br)Br)=N3)cc1
Output: 6.25

Task: State, in one line, measured growth inhibition of Cc1cc(Cl)ccc1NC(=O)C1C(=O)N(c2ccc(Cl)cc2C)C(=O)/C1=N\NC(N)=S (configuration not stated)
Output: -22.5

Task: State, in one line, measured growth inhibition of c1ccc2c[n+](Cc3ccc4ccccc4n3)ccc2c1
Output: 4.05

Task: State, in one line, measured growth inhibition of O=C(c1ccccc1)C1(Br)CCCCC1
Output: 19.8

Task: State, in one line, measured growth inhibition of CN=C(NC#N)NCc1ccccc1
Output: -2.6

Task: State, in one line, measured growth inhibition of CCCCC1SC(N)=NC1=O (configuration not stated)
Output: 12.5

Task: State, in one line, measured growth inhibition of [N-]=[N+]=CC(=O)C1OC1c1ccc2ccccc2c1 (configuration not stated)
Output: 0.8

Task: State, in one line, measured growth inhibition of O=C(Nc1ccc(CSc2ccc(Cl)cc2)o1)N1CCOCC1
Output: 40.8

Task: State, in one line, measured growth inhibition of Cc1ccc(SC(C)/C=C/NNC2=NC(c3ccccc3)C(c3ccccc3)=NN2)cc1 (configuration not stated)
Output: 6.05

Task: State, in one line, measured growth inhibition of CC(=O)Oc1cc(C)c(OC(C)=O)c(C)c1C
Output: -2.15

Task: State, in one line, measured growth inhibition of O=[N+]([O-])c1cc(/C=N/NS(=O)(=O)c2ccc(F)cc2)c(O)c([N+](=O)[O-])c1
Output: -14.6

Task: State, in one line, measured growth inhibition of CCOC(=O)N1C(c2ccccc2)N(c2ccccc2)C(c2ccccc2)N1C(=O)OCC (configuration not stated)
Output: 22.9

Task: State, in one line, measured growth inhibition of CC1=C(C[Si](C)(C)C)CC(CO[Si](C)(C)C(C)(C)C)C2C(=O)N(C(=O)c3ccccc3)C(Cc3ccccc3)C12 (configuration not stated)
Output: 2.05

----------
experimental.details: NCI Yeast Anticancer Drug Screen. Data for the mlh1 rad18 strain (AID 175)
measurement.parameters: S. cerevisiae mlh1 rad18 strain growth inhibition; at 50.0 µM; stronger effect = higher value
Method: Growth inhibition of yeast strains with defined genetic alterations is measured as a screen for potential anti-cancer activity. Selected strains with alterations in DNA damage repair or cell cycle control were exposed to compounds and growth inhibition was measured relative to vehicle treated controls. The strain used in this assay is mlh1 rad18
This is part of a sample that, as a whole, favours compounds with a hit. Of some 79,000 tested, about 15% had one in any assay.
attribute.measured: growth inhibition (%)
The reply should contain only the number, in %.

Here are 4 compounds together with their reported answers.
compound	unit.annotation	growth inhibition
Cc1c(C(=O)/C=C/c2ccc(N(C)C)cc2)c(=O)n(-c2ccccc2)n1C	%	-20.1
Cc1ccc(OC(=O)c2cc([N+](=O)[O-])cc([N+](=O)[O-])c2)cc1	%	-0.7
Cc1cn(CCCSCC2OC3OC4C(CO)OC(OC5C(CO)OC(OC6C(CO)OC(OC7C(CO)OC(OC8C(CO)OC(OC9C(CO)OC(OC2C(O)C3O)C(O)C9O)C(O)C8O)C(O)C7O)C(O)C6O)C(O)C5O)C(O)C4O)c(=O)[nH]c1=O (stereo not given)	%	-14.2
O=C1CSC(=S)N1	%	20.9

Task: State, in one line, measured growth inhibition of Cc1ccc(S(=O)(=O)N2CN3CN(C2)CN(S(=O)(=O)c2ccc(C)cc2)C3)cc1
Output: -4.2

Task: State, in one line, measured growth inhibition of CC(=O)OCC(OC(C)=O)C(OC1OC(COC(C)=O)C(OC(C)=O)C(OC(C)=O)C1OC(C)=O)C(OC(C)=O)c1cnn(-c2ccccc2)n1 (stereo not given)
Output: -5.75

Task: State, in one line, measured growth inhibition of Nc1ccc(C(=O)Nc2ccc3c(O)cc(S(=O)(=O)O)cc3c2)cc1
Output: 8.6

Task: State, in one line, measured growth inhibition of CC(=O)NO
Output: 11.3

Task: State, in one line, measured growth inhibition of Cc1cccc(C(C)(O)c2cnc(C)n2Cc2ccccc2)c1 (stereo not given)
Output: 15.2

Task: State, in one line, measured growth inhibition of c1ccc(CC[n+]2ccncc2)cc1
Output: -17.3

Task: State, in one line, measured growth inhibition of Cc1ccc(-c2n[nH]c(=O)n2/N=C\c2ccc([N+](=O)[O-])cc2)cc1
Output: -41.5

Task: State, in one line, measured growth inhibition of O=C1c2ccccc2-c2ccc(N=Cc3cccs3)cc21
Output: 11.7

Task: State, in one line, measured growth inhibition of Cc1ccc(-c2c(N)nc(NC#N)nc2CCC(=O)Nc2ccccc2[N+](=O)[O-])cc1
Output: 5.4
